Source listed as patent US9249185B2.

System: human umbilical vein endothelial cells (HUVECs)
Assay: Proliferation of HUVECs (CyQUANT kit)
Format: cell-based
Details: 48 hours with peptide, negative control (untreated) = 100
# Cell proliferation (%) listing for each entry below
MEASUREMENT_KIND: Cell proliferation (%)

1. KNAGHS (Pep_4 Artificial Peptide for Promotion of Angiogenesis) :: 119.6
2. RQAGDS (Pep_5 Artificial Peptide for Promotion of Angiogenesis) :: 207.5
3. KNAGDS (Pep_3 Artificial Peptide for Promotion of Angiogenesis) :: 115.7
4. PKAGES (Pep_2 Artificial Peptide for Promotion of Angiogenesis) :: 104.4
5. AGESQK (Pep_11 Artificial Peptide for Promotion of Angiogenesis) :: 146.5
6. RQAGHS (Pep_6 Artificial Peptide for Promotion of Angiogenesis) :: 138.0
